Reported pIC50 is given for each of the following molecules.
system-name: c-Kit(V654A) (Homo sapiens, UniProt P10721, V654A)
procedure-text: c-Kit(V654A) assay
Format: biochemical
condition-summary: Table 2, corresponding triazole derivatives
Experimental: c-Kit(V654A) (N-terminal GST-tagged, recombinant human c-Kit, amino acids 544-end containing the V654A mutation) is incubated with 8 mM MOPS pH 7.0, 0.2 mM EDTA, 250 μM GGMEDIYEFMGGKKK, 10 mM MgAcetate and [gamma-33P-ATP](specific activity approx. 500 cpm/pmol, concentration 200 μM). The reaction is initiated by the addition of the MgATP mix. After incubation for 40 minutes at room temperature, the reaction is stopped by the addition of 3% phosphoric acid solution. […]
Recall that pIC50 is obtained by taking minus log10 of the concentration measured in molar.

[
  {
    "molecule": "COCCOc1ccc2c(-c3cn(-c4ccc(C(=O)N5CCN(C)C[C@@H]5C)cc4)nn3)n[nH]c2c1 [reference compound]",
    "reported-result": 8.21
  }
]

Kindly note the recorded pIC50 for COCCOc1cc2[nH]nc(-c3cn(-c4ccc(C(=O)N5CCN(C6COC6)CC5)cc4)nn3)c2cc1F [reference compound] , which is 8.11

Kindly note the recorded pIC50 for COCCOc1cc2[nH]nc(-c3cn(-c4ccc(C(=O)N5Cc6ccncc6C5)cc4)nn3)c2cc1F [reference compound] , which is 8.64

Kindly note the recorded pIC50 for COCCOc1cc2[nH]nc(-c3cn(-c4ccc(C(=O)N5CCOC[C@H]5C)cc4)nn3)c2cc1F [reference compound] , which is 8.37
